B1: Caulobacter ParB omega fusion; a variant is named by its letters at X, in order, B8GW30 (parent)
chain: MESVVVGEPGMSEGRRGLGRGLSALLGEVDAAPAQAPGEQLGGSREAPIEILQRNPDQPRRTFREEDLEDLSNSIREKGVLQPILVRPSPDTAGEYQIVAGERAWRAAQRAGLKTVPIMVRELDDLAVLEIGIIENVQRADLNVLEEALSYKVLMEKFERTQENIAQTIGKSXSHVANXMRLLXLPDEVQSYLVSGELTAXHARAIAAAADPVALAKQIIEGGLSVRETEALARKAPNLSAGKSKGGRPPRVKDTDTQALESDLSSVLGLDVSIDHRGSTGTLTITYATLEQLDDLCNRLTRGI

# Variants of: B1
# PROCEDURE SUMMARY: one-hybrid fitness for binding parS DNA (scaled: cognate 1, non-cognate 0); higher = stronger binding
# TEST SETTINGS: with parS DNA site
In all, about 81,000 sequences were measured (“one-hybrid fitness for binding parS DNA”: median about -0.17, highest 2% from about 0.51 on). The sample holds the highest values, similar sequences and a random draw of the others, so the mix is not that of the screen.
READOUT NAME: one-hybrid fitness for binding parS DNA

mutation_notation=RIGH endpoint_result=0.246
mutation_notation=TGRC endpoint_result="≤ 0.2"
mutation_notation=RLKQ endpoint_result="≤ 0.2"
mutation_notation=MTRW endpoint_result="≤ 0.2"
mutation_notation=RIGD endpoint_result="≤ 0.2"

State its one-hybrid fitness for binding parS DNA for this variant: RLVR
≤ 0.2

State its one-hybrid fitness for binding parS DNA for this variant: RTDH
≤ 0.2

State its one-hybrid fitness for binding parS DNA for this variant: VAEC
≤ 0.2

State its one-hybrid fitness for binding parS DNA for this variant: RLKM
0.399

State its one-hybrid fitness for binding parS DNA for this variant: RTND
≤ 0.2

State its one-hybrid fitness for binding parS DNA for this variant: REFV
≤ 0.2

State its one-hybrid fitness for binding parS DNA for this variant: NYTR
≤ 0.2

State its one-hybrid fitness for binding parS DNA for this variant: PDML
≤ 0.2

State its one-hybrid fitness for binding parS DNA for this variant: SYRV
≤ 0.2

State its one-hybrid fitness for binding parS DNA for this variant: NPSH
≤ 0.2

State its one-hybrid fitness for binding parS DNA for this variant: SAPW
≤ 0.2

State its one-hybrid fitness for binding parS DNA for this variant: LGVG
≤ 0.2

State its one-hybrid fitness for binding parS DNA for this variant: YVYG
≤ 0.2

State its one-hybrid fitness for binding parS DNA for this variant: ECSL
≤ 0.2
